Listed below: Max Absorbance values for each entry.
System Name: human IL-12 receptor (IL-12Rβ1 and IL-12Rβ2) on HEK-Blue IL-12 cells (human, UniProt P42701 24-662; Q99665 24-862)
Sequence (Q99665 24-862, chain 2 of 2, other chains not shown): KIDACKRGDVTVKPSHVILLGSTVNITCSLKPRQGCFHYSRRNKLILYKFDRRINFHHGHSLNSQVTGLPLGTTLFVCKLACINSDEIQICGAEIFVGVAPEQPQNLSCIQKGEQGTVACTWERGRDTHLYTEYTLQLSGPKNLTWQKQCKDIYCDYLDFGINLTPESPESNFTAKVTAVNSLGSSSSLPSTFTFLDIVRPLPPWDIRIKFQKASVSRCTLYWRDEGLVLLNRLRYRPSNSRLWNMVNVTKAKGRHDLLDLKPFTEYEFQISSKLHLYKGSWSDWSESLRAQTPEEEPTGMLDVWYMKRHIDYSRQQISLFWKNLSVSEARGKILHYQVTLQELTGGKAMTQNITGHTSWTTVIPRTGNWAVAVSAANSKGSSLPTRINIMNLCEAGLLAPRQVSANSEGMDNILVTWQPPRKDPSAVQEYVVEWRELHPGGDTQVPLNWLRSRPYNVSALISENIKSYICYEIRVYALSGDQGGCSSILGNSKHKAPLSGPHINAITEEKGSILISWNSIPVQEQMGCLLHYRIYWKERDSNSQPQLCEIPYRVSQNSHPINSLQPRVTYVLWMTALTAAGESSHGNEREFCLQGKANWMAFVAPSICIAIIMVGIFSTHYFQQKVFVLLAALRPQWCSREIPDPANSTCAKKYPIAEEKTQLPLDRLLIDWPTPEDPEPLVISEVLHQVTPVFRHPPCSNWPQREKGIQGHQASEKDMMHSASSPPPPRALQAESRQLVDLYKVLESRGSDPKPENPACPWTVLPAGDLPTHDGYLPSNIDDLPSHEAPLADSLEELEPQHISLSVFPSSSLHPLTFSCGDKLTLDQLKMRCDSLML
Assay Info: cell-based or functional assay
Answer with the value's number alone.

binder="DGL541 (bispecific antibody, V domains shown) V domain 1: QVQLVESGGGLVQAGGSLRLSCAASGRTFRTYAMGWFRQAPGKDREVVGIAAWKVASTYYVDYGDSVRGRFTISRDDAKSTVYLQMNNLMPEDTAVYYCAAGAFRTDWRSYAYWGQGTQVTVEP V domain 2: QVQLVESGGGLVQAGGSLRLSCAASGRTFSSYAMGWFRQAPGKEREFVSAISWSGLSTYYVESVQGRFTISRDNAKNTVYLQMNSLKPEDTAVYYCAASRIYTNYVARSYEYDDWGQGTQVTVEP" numeric_value=0.37
binder="DGL599 (bispecific antibody, human IgG1, V domains shown) V domain 1: EVQLVESGGGLVQAGGSLRLSCAASGSKFSFNAMGWYRQTPGKQRELVAIIINGDMINYADSVKGRFTISRDNAKNTMYLQMNSLKPEDTAVYYCKMTRYVYDYWGQGTQVTVEP V domain 2: QVQLVQSGAEVKKPGASVRVSCKASGYTFTSYYIHWVRQAPGQGLEWMGIINPSGGSTSYAQKFQGRVTMTRDTSTTTVYMELSSLRSEDTAVYYCAKSNWAYAFDIWGQGTMVTVSS" numeric_value=0.48

Lookup: Tell me the measured Max Absorbance of DGL545 (bispecific antibody, V domains shown) V domain 1: QVQLVESGGGAVQAGGSLRLSCAASGLTSRHYVMAWFRQAPGIEREFVASIWWGGSTYYADSVKDRFTISRDNAENTVYLQMNSLKPEDTAVYRCAVGTKIGTMGPRYDYWGQGTQVTVEP V domain 2: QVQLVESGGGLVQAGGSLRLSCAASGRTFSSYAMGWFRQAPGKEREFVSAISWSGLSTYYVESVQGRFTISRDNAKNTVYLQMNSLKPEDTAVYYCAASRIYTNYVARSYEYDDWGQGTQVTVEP , please.
Found: 0.59
